Tested on: paw plantar skin of rats
assay_details: Rat models with hand-foot skin reaction, topical ointment (Example 22)
Type: in vivo, SD rats
particulars: afatinib 50 mg/kg; 10% compound ointment on left paw; right paw (blank matrix ointment); 30 days
# reported Incidence rate; entries follow

{"compound": "NC(=O)C1c2[nH]c3ccc(Cl)cc3c2C2CCC1C2 (stereo not shown)", "Incidence rate": "1/12 (8%)"}
{"compound": "NC(=O)C1CCCc2c1[nH]c1ccc(Cl)cc21 (stereo not shown)", "Incidence rate": "5/12 (42%)"}
{"compound": "CN1CC[C@H](C(N)=O)c2[nH]c3ccc(Cl)cc3c21", "Incidence rate": "1/12 (8%)"}
{"compound": "NC(=O)[C@H]1CCCc2c1[nH]c1ccc(Cl)cc21", "Incidence rate": "3/12 (25%)"}

----------
Recorded Incidence rate for the following compounds
System: paw plantar skin of rats
assay_details: Rat models with hand-foot skin reaction, topical ointment (Example 22)
Assay type: in vivo, SD rats
particulars: sorafenib 100 mg/kg; 3% compound ointment on left paw; left paw; 30 days
property_label: Incidence rate

{"compound": "CN1CC[C@H](C(N)=O)c2[nH]c3ccc(Cl)cc3c21 [Compound 8b]", "measured_result": "1/12 (8%)"}
{"compound": "NC(=O)[C@H]1CCCc2c1[nH]c1ccc(Cl)cc21 [Compound 2b]", "measured_result": "2/12 (17%)"}
{"compound": "NC(=O)C1CCCc2c1[nH]c1ccc(Cl)cc21 (stereo not shown) [Compound 2]", "measured_result": "1/12 (8%)"}
{"compound": "NC(=O)C1c2[nH]c3ccc(Cl)cc3c2C2CCC1C2 (stereo not shown) [Compound 5a]", "measured_result": "1/12 (8%)"}

----------
Tested on: paw plantar skin of rats
assay_details: Rat models with hand-foot skin reaction, topical ointment (Example 22)
Format: in vivo, SD rats
particulars: afatinib 50 mg/kg; 10% compound ointment on left paw; left paw; 30 days

{"compound": "NC(=O)C1c2[nH]c3ccc(Cl)cc3c2C2CCC1C2 (stereo not shown)", "Incidence rate": "0/12 (0%)"}
{"compound": "CN1CC[C@H](C(N)=O)c2[nH]c3ccc(Cl)cc3c21", "Incidence rate": "0/12 (0%)"}
{"compound": "NC(=O)C1CCCc2c1[nH]c1ccc(Cl)cc21 (stereo not shown)", "Incidence rate": "1/12 (8%)"}
{"compound": "NC(=O)[C@H]1CCCc2c1[nH]c1ccc(Cl)cc21", "Incidence rate": "0/12 (0%)"}

----------
Tested on: HaCat cells
assay_details: m6A methylation level of human HaCat keratinocytes, EpiQuik m6A RNA methylation quantification kit (Example 20)
Format: cell-based
particulars: HaCat cells, 50 nM sorafenib + 400 nM test compound, 24 hours
Measured m6A fold change relative to control group 1 values are reported for all entries that follow.
property_label: m6A fold change relative to control group 1

{"molecule": "NC(=O)C1c2[nH]c3ccc(Cl)cc3c2C2CCC1C2 (centres unmarked) [Compound 5a]", "measured_result": 1.0}
{"molecule": "NC(=O)[C@H]1CCCc2c1[nH]c1ccc(Cl)cc21", "measured_result": 1.4}
{"molecule": "NC(=O)C1c2[nH]c3ccc(Cl)cc3c2C2CCC1C2 (centres unmarked) [Compound 5b]", "measured_result": 3.8}
{"molecule": "NC(=O)C1CCCc2c1[nH]c1cc(F)c(Cl)c(F)c21 (centres unmarked)", "measured_result": 3.6}
{"molecule": "NC(=O)[C@@H]1CCCc2c1[nH]c1ccc(Cl)cc21", "measured_result": 3.4}

Source of measurements: patent US20260226006A1
